What pKi was measured for each of the following?
Experiment: Inhibition of Sulfurihydrogenibium azorense alpha-carbonic anhydrase by [18O]-exchange mass spectroscopy
Lab note: report pKi as minus log10 of the concentration in molar units, number only.

**Q:** Please report pKi for the following molecule: Br [BROMIDE]
**A:** 3.03

**Q:** Please report pKi for the following molecule: S [HYDROGEN SULFIDE]
**A:** 3.42

**Q:** Please report pKi for the following molecule: Cl [HYDROCHLORIC ACID]
**A:** 3.07

**Q:** Please report pKi for the following molecule: I [IODIDE]
**A:** 3.06

====

Target: Carbonic anhydrase, alpha family (Thiomicrospira crunogena, UniProt Q31FD6)
Sequence (Q31FD6 whole entry): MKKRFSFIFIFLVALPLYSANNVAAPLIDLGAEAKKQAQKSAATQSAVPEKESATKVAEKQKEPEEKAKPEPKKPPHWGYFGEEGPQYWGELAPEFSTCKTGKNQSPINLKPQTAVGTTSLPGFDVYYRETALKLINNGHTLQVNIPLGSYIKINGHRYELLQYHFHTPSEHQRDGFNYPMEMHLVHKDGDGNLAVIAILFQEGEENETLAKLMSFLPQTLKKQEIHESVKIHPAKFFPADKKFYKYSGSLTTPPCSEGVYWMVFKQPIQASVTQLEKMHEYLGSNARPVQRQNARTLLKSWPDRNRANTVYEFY
measured-property: pKi
Lab note: report pKi as minus log10 of the concentration in molar units, number only.

**Q:** Please report pKi for the following compound: I [IODIDE]
**A:** 1.28

**Q:** Please report pKi for the following compound: Br [BROMIDE]
**A:** 0.62

**Q:** Please report pKi for the following compound: Cl [HYDROCHLORIC ACID]
**A:** 0.44

**Q:** Please report pKi for the following compound: S [HYDROGEN SULFIDE]
**A:** 5.96

====

Assay: Inhibition of Vibrio cholerae alpha-carbonic anhydrase by [18O]-exchange mass spectroscopy
What Ki was measured for each of the following?
Give the value in mM but do not write mM after it.

**Q:** Please report Ki for the following compound: Cl [HYDROCHLORIC ACID]
**A:** 0.93

**Q:** Please report Ki for the following compound: S [HYDROGEN SULFIDE]
**A:** 0.074

**Q:** Please report Ki for the following compound: Br [BROMIDE]
**A:** 28

**Q:** Please report Ki for the following compound: I [IODIDE]
**A:** 9.73

====

What Ki was measured for each of the following?
Assay: Inhibition of Sulfurihydrogenibium yellowstonense YO3AOP1 alpha-carbonic anhydrase by [18O]-exchange mass spectroscopy
Give the value in mM but do not write mM after it.

**Q:** Please report Ki for the following compound: Br [BROMIDE]
**A:** 49

**Q:** Please report Ki for the following compound: Cl [HYDROCHLORIC ACID]
**A:** 8.3

**Q:** Please report Ki for the following compound: S [HYDROGEN SULFIDE]
**A:** 0.58

**Q:** Please report Ki for the following compound: I [IODIDE]
**A:** 0.86
